# Test system: VIM-2 metallo-beta-lactamase (Pseudomonas aeruginosa)
# METHOD: inhibition of VIM-2 nitrocefin hydrolysis – biochemical, epi-absorbance readout, Pseudomonas aeruginosa enzyme, primary screen (AID 1527);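 also: red hydrolysis product quenches plate fluorescence so inhibitors raise well fluorescence; 0% = enzyme with DMSO and 100% = DMSO without enzyme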
# SETTINGS: purified VIM-2, nitrocefin hydrolysis, epi-absorbance fluorescence; at 5.6 µM; active compounds read high
About 2,600 (0.9%) of roughly 290,000 compounds were called active. Only a selection was taken, and actives are over-represented in it overall.
ATTRIBUTE MEASURED: inhibition (%)
Numbers only, in %.

| COMPOUND | ATTRIBUTE MEASURED | MEASURED |
| --- | --- | --- |
| Cn1c(C(=O)NCCc2ccsc2)cc2c(=O)n(C)c3ccccc3c21 | inhibition | 4.63 |

Working through the 4 compounds below one at a time, give inhibition for each.
1. COc1cc(S(=O)(=O)N(Cc2cccs2)C2CC2)ccc1-n1cnnn1
2. Cn1c(C(=O)N2CCC(C(N)=O)CC2)cc2c(=O)n(C)c3ccccc3c21
3. CN(C)CCNc1ccc(-c2n[nH]c(=O)c3ccccc23)cc1[N+](=O)[O-]
4. CC1CCCC(C)N1CCCNC(=O)c1cc2c(=O)n(C)c3ccccc3c2n1C (stereo not drawn)

1: -1.52; 2: 2.96; 3: 78.8; 4: 21.7
